# Species: Oryctolagus cuniculus
# condition-info: at 2 mM
# Description: Inhibition of UBR protein in rabbit reticulocyte lysates assessed as inhibition of Tyr-nsP4 substrate degradation at 2 mM
Calls of active or inactive are those of the source. The calls are words filed in the database; no cut-off is given here.
Use one of these outcomes when replying: 1 (active), -1 (inactive)

I'd appreciate the recorded outcome for COC(=O)CCCCNC(=O)[C@@H](N)Cc1ccccc1 from this test. 1

Could you kindly confirm the outcome this assay logged for N[C@@H](Cc1ccccc1)C(=O)NCCC(=O)O ? 1

# outcome recorded in this test, key = N[C@@H](Cc1ccccc1)C(=O)NCCCP(=O)(O)O 1

Returns: the outcome recorded for CC(=O)N[C@@H](Cc1ccccc1)C(N)=O in this assay. -1

State the result this test recorded for N[C@@H](Cc1ccccc1)C(=O)NCCCCC(=O)O . 1

I'd appreciate the recorded outcome for NC(=O)[C@@H](N)Cc1ccccc1 from this test. 1

Any idea what this test logged for CCCCCNC(=O)[C@@H](N)Cc1ccccc1 ? 1

Status in this test for CC(=O)N[C@@H](Cc1ccccc1)C(=O)O ? -1

---

# Organism: Oryctolagus cuniculus
# assay-procedure: Inhibition of UBR protein in rabbit reticulocyte lysates assessed as inhibition of RGS4 substrate degradation at 2 mM after 30 to 60 mins in presence of bestatin
The source made the active and inactive calls. No cut-off for these calls is given here.
A correct response names exactly one class from true (1) = active, false (0) = inactive

Can you look up the reported call for N=C(N)NCCC[C@@H](N)C(=O)N[C@@H](Cc1ccccc1)C(=O)O for me? false (0)

Answer briefly: the call reported for NC(N)=NCCC[C@H](N)C(=O)N[C@@H](Cc1ccccc1)C(=O)O in this assay. true (1)

Could you kindly confirm the outcome this assay logged for C[C@H](NC(=O)[C@H](N)CCCNC(=N)N)C(=O)O ? false (0)

Query: recorded result category for C[C@H](NC(=O)[C@@H](N)CCCN=C(N)N)C(=O)O in this test true (1)

---

# Organism: Oryctolagus cuniculus
# condition-info: at 2 mM
# Description: Inhibition of UBR protein in rabbit reticulocyte lysates assessed as inhibition of Tyr-nsP4 substrate degradation at 2 mM by immunoblotting analysis in presence of bestatin
Activity calls are given as the source filed them. The calls are words filed in the database; no cut-off is given here.
Choose the fitting class; nothing outside true = active, false = inactive is accepted.

What is the recorded call for this molecule in the test? CC(N)Cc1ccccc1 (stereo not given) true

Which outcome was assigned to N[C@@H](Cc1ccccc1)C(=O)NCCCP(=O)(O)O in this test? true

Record request — test call for COC(=O)CCCCNC(=O)[C@@H](N)Cc1ccccc1 true

Field: outcome | Entry: NC(=O)[C@@H](N)Cc1ccccc1 false

Per the assay record, what outcome was assigned to N[C@@H](Cc1ccccc1)C(=O)NCCCCC(=O)O ? true

---

# Species: Oryctolagus cuniculus
# condition-info: at 2 mM
Calls of active or inactive are those of the source. No cut-off for these calls is given here.
Choose the fitting class; nothing outside YES = active, NO = inactive is accepted.

What outcome does the record of this test show for CC(=O)N[C@@H](Cc1ccccc1)C(=O)N[C@@H](C)C(=O)O ? NO

Tell me the assay call for CCCCCNC(=O)[C@@H](N)Cc1ccccc1 please. YES

Recorded test call requested for CC(=O)N[C@@H](Cc1ccccc1)C(N)=O NO

Identify the outcome logged in this assay for the compound shown: C[C@H](NC[C@@H](N)Cc1ccccc1)C(=O)O NO

Call for entry CC(N)Cc1ccc(Cl)cc1 (configuration not stated) : YES

What is the recorded call for this compound in the test? N[C@@H](Cc1ccccc1)C(=O)NCCC(=O)O YES

Please indicate how the test categorized CC(=O)N[C@@H](Cc1ccccc1)C(=O)O . NO
